Tested on: HOP-92 NSCLC
test.protocol: NCI tumour cell line growth inhibition, 48 h
property.measured: TGI (µM)
State just the number; it will be interpreted in µM.

Request: I have this compound here, `[O-]c1c2cc(-[n+]3c(-c4ccccc4)cc(-c4ccccc4)cc3-c3ccccc3)cc1COCCOCCOCCOCCOC2` , and I need its recorded TGI.
Result: 73.9

Request: Name the recorded TGI for `Oc1[nH]c2ccccc2c1N=NC(=S)Nc1ccccc1Cl` .
Result: 56.2

Request: // query TGI value for entry `CC1=C(CC(=O)c2cccc([N+](=O)[O-])c2)C(=O)c2ccccc2C1=O`
Result: 17.7

Request: Given the compound C#CCNC(=O)[C@H](CC)[C@H]1CC[C@H](C)[C@H]([C@@H](C)[C@H](O)[C@H](C)C(=O)[C@H](CC)C2O[C@]3(C=CC(=O)[C@]4(CC[C@@](C)([C@H]5CC[C@](O)(CC)[C@H](C)O5)O4)O3)[C@H](C)C[C@@H]2C)O1 (stereo not given in full) , what is its reported TGI?
Result: 6.62

Request: Look up TGI: CC1CN=C(N(Cc2ccccc2)C(=O)Nc2ccc(Cl)c(Cl)c2)S1 (stereo not given)
Result: 54.5

----------
Tested on: HOP-62 NSCLC
test.protocol: NCI tumour cell line growth inhibition, 48 h
Listed here: items and their measured TGI.
Could you give me the number in µM? Just the number is fine.

Below, 3 compounds whose answers are already recorded.
[
  {
    "compound": "COc1ccc2c(c1)c1c(n2CCN(C)C)-c2ccccc2CC1",
    "TGI [µM]": 30.5
  },
  {
    "compound": "Clc1cc(Cl)cc(N=C/C=C/Nc2cc(Cl)cc(Cl)c2)c1",
    "TGI [µM]": 51.8
  },
  {
    "compound": "COC1C(N)C(OC2C(Oc3cccc4c(O)c5c(=O)oc6ccc(C)c7c(=O)oc(c34)c5c67)OC(C)C(O)C2(C)O)OC(C)C1O (centres undefined)",
    "TGI [µM]": 0.258
  }
]

Proceeding to the next compound to report its TGI.
Request: Would you mind telling me what TGI value was observed for O=C(CC1(O)C(=O)N(Cc2ccccc2)c2ccccc21)c1ccc(C(=O)NCC2CCC3(CC2)OOC2(CCCCC2)OO3)cc1 (centres undefined) ?
Result: 0.86

----------
Reported TGI values for a set of compounds
System: HCT-116 colon
test.protocol: NCI tumour cell line growth inhibition, 48 h

Below, each entry is followed by its recorded TGI result.
[
  {
    "compound": "C[N+](C)(C)c1ncnc2c1ncn2C1CC(O)C(CO)O1 (centres undefined)",
    "observed.result": "> 100 µM"
  },
  {
    "compound": "CC12CCC(=O)N1c1ccc([N+](=O)[O-])cc1N2 (centres undefined)",
    "observed.result": "> 100 µM"
  },
  {
    "compound": "Cc1ccc(C)c(N2C(=O)C(=O)C(c3nc4ccccc4s3)/C(=N/NC(=O)NN)C2=O)c1 (centres undefined)",
    "observed.result": "> 100 µM"
  },
  {
    "compound": "CC1(C)CC(=O)C(/C(=N/NC(=S)NN)C(=O)Nc2nc3ccc([N+](=O)[O-])cc3s2)C(=O)C1",
    "observed.result": "> 100 µM"
  },
  {
    "compound": "O=C(O)c1cccc(C(=O)O)c1S(=O)Cc1ccccc1 (centres undefined)",
    "observed.result": "> 100 µM"
  },
  {
    "compound": "COc1cc(C(C)O)c[n+](Cc2ccccc2)c1 (centres undefined)",
    "observed.result": "> 100 µM"
  },
  {
    "compound": "O=C1C(Cl)C2(CC(/C=C/c3ccccc3)=NN2c2cccc(S(=O)(=O)O)c2)N1c1nc2ccccc2s1 (centres undefined)",
    "observed.result": "56.1 µM"
  },
  {
    "compound": "CCCCCO/N=C\\c1c2c(O)c3c(O)c(C)c4c(c3c1O)C(=O)C(C)(O/C=C\\C(OC)C(C)C(OC(C)=O)C(C)C(O)C(C)C(O)C(C)/C=C\\C=C(\\C)C(=O)N2)O4 (centres undefined)",
    "observed.result": "3.01 µM"
  }
]

Okay, next one:
Request: Recorded TGI for `N#CCN1CCn2c1nsc2=S` , please?
Result: > 100 µM

----------
Test system: MCF7 breast
test.protocol: NCI tumour cell line growth inhibition, 48 h
property.measured: TGI (µM)
// return numeric value only (unit: µM, not printed)

# example entries with known answers
[
  {
    "compound": "O=C1C(Cl)C2(CC(/C=C/c3ccccc3)=NN2c2cccc(S(=O)(=O)O)c2)N1c1nc2ccccc2s1 (stereo not given)",
    "TGI / µM": 36.6
  },
  {
    "compound": "Oc1cccc2ccc(N/N=C/c3cc(CN4CCOCC4)c(O)c4ncccc34)nc12",
    "TGI / µM": 1.54
  }
]

Request: Consider the compound shown here: `O=c1c2cc(S(=O)(=O)O)ccc2nc(COc2ccc(Oc3ccc(Cl)cc3Cl)cc2)n1-c1ccc(Oc2ccc(Cl)cc2)cc1Cl` What is its recorded TGI?
Result: 40.6

----------
Tested on: HOP-62 NSCLC
test.protocol: NCI tumour cell line growth inhibition, 48 h
Below is a list of entries, each paired with its recorded TGI value.
// return numeric value only (unit: µM, not printed)

Illustrative cases are given below, each with its answer.
[
  {
    "compound": "c1ccc(-c2nc(N3CCNCC3)c3oc(-c4ccccc4)nc3n2)cc1",
    "u": "µM",
    "TGI": 4.81
  },
  {
    "compound": "Cc1cccc2c3c(sc12)C(c1ccc(Cl)cc1)C(C#N)=C(N)O3 (stereo unspecified)",
    "u": "µM",
    "TGI": 13.8
  }
]

Request: Notebook entry, HOP-62 NSCLC assay: TGI of CC1OC(OC2C(O)CC(OC3C(O)CC(OC4CCC5(C)C(CCC6C5CC(O)C5(C)C(C7=CC(=O)OC7)CCC65O)C4)OC3C)OC2C)CC(O)C1O (stereo unspecified) = ?
Result: 0.125

----------
Test system: SF-539 CNS
test.protocol: NCI tumour cell line growth inhibition, 48 h
property.measured: GI50

A selection of reference data follows.
[
  {
    "compound": "Cn1cc(C2=C(c3cccc(OC[C@@H](O)CO)c3)C(=O)NC2=O)c2ccccc21",
    "GI50": "> 19.4 µM"
  },
  {
    "compound": "N#CC1=C(/N=C/c2ccccc2)Oc2c(ccc3ccccc23)C1c1ccccc1 (stereo not given)",
    "GI50": "0.335 µM"
  },
  {
    "compound": "c1ccc2cc(-c3n(Cc4ccc5ccccc5n4)c4ccccc4[n+]3Cc3ccc4ccccc4n3)ccc2c1",
    "GI50": "0.39 µM"
  },
  {
    "compound": "Nc1nc(Nc2ccccc2SSc2ccccc2Nc2nc(N)nc(C(Cl)(Cl)Cl)n2)nc(C(Cl)(Cl)Cl)n1",
    "GI50": "11.2 µM"
  },
  {
    "compound": "c1ccc2c(c1)Nc1ccncc1S2",
    "GI50": "19.7 µM"
  },
  {
    "compound": "COC1=C(OC)C(=O)C(SC/C=C(\\C)CCCC(C)CCCC(C)CCCC(C)C)=CC1=O (stereo not given)",
    "GI50": "1.41 µM"
  },
  {
    "compound": "COc1ccc(/C=C(\\C#N)n2nnc3c(F)cccc32)cc1",
    "GI50": "0.322 µM"
  },
  {
    "compound": "Cc1cc(C#Cc2ccc(C(C)(C)C)cc2)ccc1-n1c(/C=C/c2ccc(O)cc2O)nc2ccccc2c1=O",
    "GI50": "4.37 µM"
  }
]

Request: GI50 of `Oc1c(I)cc(I)c2cccnc12` on SF-539 CNS?
Result: 4.16 µM

Request: Form field: GI50 recorded for `COc1ccc(N(CC(=O)NCCC[Te]c2ccccc2)C(=O)CNC(=O)OC(C)(C)C)cc1` with SF-539 CNS (enter value)
Result: 2.14 µM

----------
Tested on: SF-268 CNS
test.protocol: NCI tumour cell line growth inhibition, 48 h
property.measured: TGI (µM)
Numbers only; they are read as µM.

Request: Data request, read-out TGI, for C=C1CCC2[C@@H](CCC3[C@]2(C)CCC[C@]3(C)C(=O)OC)C1CC=O (stereo not given in full)
Result: 35.1

Request: Look up TGI: `Oc1ccc2cc(Br)ccc2c1-c1c(O)ccc2ccc(Br)cc12`
Result: 41.1

----------
System: M14 melanoma
test.protocol: NCI tumour cell line growth inhibition, 48 h
property.measured: TGI

Examples from the recorded data:
[
  {
    "compound": "Oc1[nH]c2ccccc2c1N=NC(=S)Nc1ccccc1Cl",
    "target.or.test.system": "M14 melanoma",
    "TGI": "14.9 µM"
  },
  {
    "compound": "COc1ccc(OC)c(CNc2ccc(C(=O)O)cc2)c1",
    "target.or.test.system": "M14 melanoma",
    "TGI": "> 100 µM"
  },
  {
    "compound": "Cc1cc[n+]2c(c1)-c1cc(C)cc[n+]1CC2",
    "target.or.test.system": "M14 melanoma",
    "TGI": "> 100 µM"
  },
  {
    "compound": "CCC1OC2C(CC=C(C)C)=C3OC(C)(O)C(C)(CC)C(OC(C)=O)C3=C3OC(=O)C=C1C32 (stereo unspecified)",
    "target.or.test.system": "M14 melanoma",
    "TGI": "> 100 µM"
  },
  {
    "compound": "c1cnc2c(c1)ccc1cccnc12",
    "target.or.test.system": "M14 melanoma",
    "TGI": "> 26.9 µM"
  }
]

As a next step, examine the compound that follows.
Request: Fill in the blank: the reported TGI of `CC(=O)NCc1cccc(C#Cc2cncnc2Nc2ccc(OCc3cccc(F)c3)c(Cl)c2)c1` is ____.
Result: > 25 µM
